Taken from paper PMC11909128.

biological target: T1, GST-PIN1 (UniProt Q13526 1-163, methionine (Met 1) mutated to asparagine (Asn 1)); assay: fluorescence polarisation; competition: Pintide titrated to GST-PIN1 (1 uM) and fluorescently labelled NRF2(402-415) pSer408 peptide (10 nM); settings: both partners purified
T1 construct: peptidyl-prolyl cis-trans isomerase PIN1 from the GST-PIN1 plasmid (Addgene #19027); also called GST-tagged PIN1 construct; source: E. coli BL21 (DE3), purified (Glutathione spin columns)
T1 sequence (Q13526 other isoform, or with tags, fused parts or gaps with the stated changes): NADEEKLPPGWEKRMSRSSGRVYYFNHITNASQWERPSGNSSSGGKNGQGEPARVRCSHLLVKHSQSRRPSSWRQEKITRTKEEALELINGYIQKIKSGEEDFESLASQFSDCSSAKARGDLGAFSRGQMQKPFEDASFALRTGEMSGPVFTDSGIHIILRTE
Square brackets hold non-standard residues; d marks the D form. Ends that are not written are not given here. pS = N[C@@H](COP(=O)(O)O)C(=O)O
QUANTITY: IC50 (µM)
One number for each entry, in µM.

I would be grateful if you could share the reported IC50 for WFY[pS]PFLE (also called WW domain-selective Pintide; source: synthetic peptide, bought: China Peptides) [Pintide (competitor, not labelled)] . 6.8
